Assay: FRG1 promoter luciferase signal modulators, primary screen, FRG1 inhibition for FSHD, cell-based, C2C12 myotubes, firefly/Renilla luciferase, luminescence (AID 1084)
Settings: higher = more signal, called active from +8 up or from −8 down
Readout label: z-score
Just the number, please, no unit attached.

See these solved cases before continuing.
[
  {
    "Compound": "COCCOC(=O)N1C(=O)[C@@]2(c3cc(C#CCNC(N)=O)ccc31)[C@H](c1ccc(O)cc1)N1[C@H](c3ccccc3)[C@H](c3ccccc3)OC(=O)[C@H]1[C@@H]2C(=O)N1CCN(c2ncccn2)CC1",
    "z-score": -0.523
  },
  {
    "Compound": "C=CCNC(=O)[C@H]1[C@@H]2C(=O)O[C@@H](c3ccccc3)[C@@H](c3ccccc3)N2[C@@H](c2ccc(OCCO)cc2)[C@]12C(=O)N(C(=O)OCCOC)c1ccc(C#Cc3ccc(OC)cc3)cc12",
    "z-score": 0.0138
  },
  {
    "Compound": "C=C(CCCC)/C(=C/C[C@H](OC(C)=O)c1ccc(OCCO)cc1)c1cc(C(=O)OC)ccc1OC",
    "z-score": 8.65
  }
]

Any idea what its z-score is? The compound is COc1ccc([Si](C)(C)[C@H]2[C@H](CC(=O)N3CCC[C@H]3CO)O[C@@]3(C(=O)N(Cc4ccc(N5CCC5=O)cc4)c4ccccc43)[C@@H]2C)cc1
-4.59

Recorded z-score for Cc1ccccc1C(O)C1C=CC2C(=O)N(c3ccccc3)C(=O)C2N1Nc1ccc([N+](=O)[O-])cc1 (stereo not drawn) , please?
-1.24

Find the recorded z-score belonging to CCOC(=O)C1=CCC(c2ccco2)N(S(=O)(=O)c2ccc(C)cc2)C1 (stereo not drawn) and report it.
-2.47

// lookup z-score for C=CCC(OC(C)=O)[C@@H]1[C@@H](N(Cc2cccc3ccccc23)C(=O)Cc2ccc(F)cc2)c2cc(OCCCO)ccc2N1C(=O)c1ccc(-c2ccccc2)cc1 (stereo partly drawn)
-1.83

Give the measured z-score of C=CCNC(=O)[C@H]1[C@@H]2C(=O)O[C@@H](c3ccccc3)[C@@H](c3ccccc3)N2[C@@H](c2ccc(OCCO)cc2)[C@]12C(=O)Nc1ccc(C#CCNC(N)=O)cc12 .
-0.651

For the compound CN1C(=O)C2C=CC(C(O)c3cc(C(F)(F)F)cc(C(F)(F)F)c3)N(NC(=O)OC(C)(C)C)C2C1=O (stereo not drawn) , what z-score is on record?
1.07

What measured z-score goes with CC(C)CNC(=O)[C@@H]1c2ccccc2C(=O)N(C2CCCCC2)[C@H]1c1ccc(CO)cc1 ?
-1.8

I'd like to know its z-score. The compound in question is C=CCC(OC(C)=O)[C@@H]1[C@@H](N(Cc2ccc(-c3cccc(C(F)(F)F)c3)o2)C(=O)c2ccc(C)cc2)c2cc(OCCCO)ccc2N1C(=O)Cc1ccc(OC)cc1 (stereo partly drawn)
-0.287

Recorded z-score of C[C@]1(C(=O)O)c2ccccc2C(=O)N(Cc2ccc(OC(F)(F)F)cc2)[C@H]1c1ccc(CO)cc1 , please.
-1.27

Look up z-score for this compound: CCOC(=O)C[C@H]1[C@H](OC(=O)c2cc3ccccc3oc2=O)[C@@H](NC(=O)c2ccc3ccccc3c2)c2cc(OCCCO)ccc2N1C(=O)Cc1ccc(OC)cc1
-0.0206

---

Biological target: Calmodulin-1 (Homo sapiens) (UniProt P0DP23)
Assay: calcium-bound CALM1 binders on microarrays, profiling panel, artefact control for SMM control-protein annotation, biochemical, small-molecule microarray, Cy5-labelled CALM1, plus calcium (AID 1112);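 also: score merges spot fluorescence with signal to noise from triplicate slides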
Conditions: Cy5-CALM1 binding fluorescence, higher = more signal
Cut-off 0.4 on composite z-score, inclusive. At or above means TRUE; below means FALSE.

[
  {
    "Molecule": "COc1ccc(C#Cc2ccc3c(c2)[C@]2(C(=O)N3)[C@H](c3ccc(OCCO)cc3)N3[C@H](c4ccccc4)[C@H](c4ccccc4)OC(=O)[C@H]3[C@@H]2C(=O)N2CCc3cc(OC)c(OC)cc3C2)cc1",
    "Measured target": "Calmodulin-1 (Homo sapiens) (UniProt P0DP23)",
    "Label class": "TRUE"
  },
  {
    "Molecule": "C=CC[C@H](OC(=O)Nc1ccc(SC)cc1)c1ccc(OCCO)cc1",
    "Measured target": "Calmodulin-1 (Homo sapiens) (UniProt P0DP23)",
    "Label class": "TRUE"
  },
  {
    "Molecule": "[N-]=[N+]=Nc1ccccc1[C@@H]1OC(c2ccc(OCCCO)cc2)=N[C@]1(Cc1ccccc1)C(=O)NCc1ccccc1",
    "Measured target": "Calmodulin-1 (Homo sapiens) (UniProt P0DP23)",
    "Label class": "TRUE"
  },
  {
    "Molecule": "O=C1C2C=CC(C(O)c3ccco3)N(Nc3ccccc3)C2C(=O)N1c1ccccc1 (configuration not stated)",
    "Measured target": "Calmodulin-1 (Homo sapiens) (UniProt P0DP23)",
    "Label class": "FALSE"
  },
  {
    "Molecule": "C=C(/C(=C/C[C@H](OC(=O)c1ccncc1)c1cccc(OCCO)c1)c1cnc2ccccc2c1)C(C)C",
    "Measured target": "Calmodulin-1 (Homo sapiens) (UniProt P0DP23)",
    "Label class": "FALSE"
  },
  {
    "Molecule": "Nc1cc(Br)ccc1C(=O)O",
    "Measured target": "Calmodulin-1 (Homo sapiens) (UniProt P0DP23)",
    "Label class": "TRUE"
  }
]

Entry COCCCNC(=O)[C@@]1(Sc2ccc(C)cc2)CC(=O)N(Cc2ccccc2Cl)[C@@H]1c1ccc(CO)cc1I : is its composite z-score no less than 0.4?
TRUE

Would you say COCCOC(=O)N1C(=O)[C@@]2(c3cc(C#CCNC(N)=O)ccc31)[C@H](c1ccc(O)cc1)N1[C@H](c3ccccc3)[C@H](c3ccccc3)OC(=O)[C@H]1[C@@H]2C(=O)N1CCN(c2ncccn2)CC1 shows composite z-score at minimum 0.4?
TRUE

composite z-score >= 0.4 for CCCCNC(=O)c1ccc(C#C[Si](C(C)C)(C(C)C)C(C)C)c(OC(C)=O)c1 ?
FALSE

---

Target: Calmodulin-1 (Homo sapiens) (UniProt P0DP23)
Assay: CALM1 binders on microarrays, EGTA buffer, profiling panel, biochemical, small-molecule microarray, Cy5-labelled CALM1 (AID 1111);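 also: labelled calmodulin applied in Tris saline Tween buffer holding calcium plus EGTA and DTT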
Conditions: Cy5-CALM1 binding fluorescence, higher = more signal
Readout label: composite z-score
Output: the number by itself.

[
  {
    "Compound": "O=C(NCC(O)CO)[C@@]1(CCS(=O)(=O)c2ccccc2)COC(c2ccc(OCCCO)cc2)=N1 (some centres undefined)",
    "composite z-score": 1.25
  },
  {
    "Compound": "CC(C)c1ccc(NN2C(C(O)Cc3ccccc3)C=CC3C(=O)N(c4ccccc4)C(=O)C32)cc1 (centres undefined)",
    "composite z-score": 2.05
  },
  {
    "Compound": "COCCOC(=O)N1C(=O)[C@@]2(c3cc(C#CCCO)ccc31)[C@H](C(=O)N1CCCCCCC1)[C@H]1C(=O)O[C@H](c3ccccc3)[C@H](c3ccccc3)N1[C@@H]2c1ccccc1OCCO",
    "composite z-score": 2.73
  }
]

Return reported composite z-score; argument: COc1ccc(C(=O)Nc2cccc(CN3C(=O)[C@@]4(O[C@@H](CC(=O)N(CCO)Cc5ccccc5)[C@H]([Si](C)(C)c5ccc(OC)cc5)[C@H]4C)c4ccccc43)c2)cc1
0.822

---

Experiment: E. coli acrAB mutant growth effects, primary screen, E. coli filamentation inducers, strain DRC39, OD650, 48 h (AID 1179);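 also: screen aims at cell division blockers that make cells filament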
Conditions: E. coli DRC39 delta-acrAB growth, higher = more signal, called active from +8 up or from −8 down
The reader will find reported z-score values listed item by item below.
Lab note: jot down the number only; don't add units.

[
  {
    "Compound": "COc1ccc([Si](C)(C)[C@H]2[C@H](CC(=O)N3Cc4ccccc4C[C@H]3CO)O[C@@]3(C(=O)N(Cc4ccc(N5C(=O)c6cccc7cccc5c67)cc4)c4ccccc43)[C@@H]2C)cc1",
    "Readout label": "z-score",
    "Value reported": 0.472
  },
  {
    "Compound": "O=C(NCC(O)CO)[C@@]1(CCS(=O)(=O)c2ccccc2)COC(c2ccc(OCCCO)cc2)=N1 (stereo partly specified)",
    "Readout label": "z-score",
    "Value reported": -0.135
  },
  {
    "Compound": "COc1ccc(C#Cc2ccc3c(c2)[C@]2(C(=O)N3)[C@H](c3ccc(OCCO)cc3)N3[C@H](c4ccccc4)[C@H](c4ccccc4)OC(=O)[C@H]3[C@@H]2C(=O)N2CCc3cc(OC)c(OC)cc3C2)cc1",
    "Readout label": "z-score",
    "Value reported": -0.324
  },
  {
    "Compound": "O=C(O)[C@H]1C[C@H]2C(=O)N[C@@H](Cc3ccccc3)C(=O)N2[C@H]1c1cccc(OCCO)c1",
    "Readout label": "z-score",
    "Value reported": 0.214
  },
  {
    "Compound": "C=CCNC(=O)[C@@H]1[C@H]2C(=O)O[C@H](c3ccccc3)[C@H](c3ccccc3)N2[C@H](c2ccc(O)cc2)[C@@]12C(=O)N(C(=O)OCCOC)c1ccc(C#CCCO)cc12",
    "Readout label": "z-score",
    "Value reported": 0.479
  }
]

Turning to the following compound.
Fill in the blank: the reported z-score of COC(=O)C1N=C(c2ccc(OCCCO)cc2)N(c2ccccc2)O1 (stereo unspecified) is ____.
-0.0518
